For each record, write down the corresponding IC50.
molecular target: FTase (Homo sapiens, UniProt P49356); construct: FTase and GGTase I activities from 60,000×g supernatants of human Burkitt lymphoma (Daudi) cells; endogenous in cells; host or cells: human Burkitt lymphoma (Daudi) cells, 60,000xg supernatant (partially purified); assay: FTase activity assay: transfer of [3H]farnesyl from FPP to recombinant H-Ras-CVLS, Daudi 60,000xg supernatant; assay type: biochemical; conditions: Table 1; read-out: FTase IC50
Give bare numbers, in nM.

Answered cases to consult:
COMPOUND: COC(=O)[C@H](CCSC)NC(=O)c1ccc(NC[C@@H](N)CS)cc1-c1ccccc1
TARGET_OF_ASSAY: FTase (Homo sapiens, UniProt P49356)
IC50 (nM): 50
--
COMPOUND: COC(=O)[C@H](CCSC)NC(=O)c1ccc(NC[C@@H](N)CS)cc1
TARGET_OF_ASSAY: FTase (Homo sapiens, UniProt P49356)
IC50 (nM): 1000
--
COMPOUND: CSCC[C@H](NC(=O)c1ccc(NC(=O)[C@@H](N)CS)cc1-c1cc(C)cc(C)c1)C(=O)O.O=C(O)C(F)(F)F
TARGET_OF_ASSAY: FTase (Homo sapiens, UniProt P49356)
IC50 (nM): 405

Return reported IC50 values for all items listed beneath this line.
1. COc1cc(C(=O)NC(CCSC)C(=O)O)ccc1NC(=O)C(N)CS.O=C(O)C(F)(F)F (stereo not shown)
2. COC(=O)C(CCSC)NC(=O)c1ccc(NC(=O)C(N)CS)cc1-c1ccccc1.Cl (stereo not shown)

A.
[2550, 2050]

Return reported IC50 values for all items listed beneath this line.
1. CSCC[C@H](NC(=O)c1ccc(NC(=O)[C@@H](N)CS)cc1-c1ccccc1)C(=O)O.O=C(O)C(F)(F)F
2. CSCC[C@H](NC(=O)c1ccc(NC[C@@H](N)CS)cc1)C(=O)O

A.
5
272
